Test target: Vascular endothelial growth factor receptor 2 (Homo sapiens)
Sequence (P35968 whole entry): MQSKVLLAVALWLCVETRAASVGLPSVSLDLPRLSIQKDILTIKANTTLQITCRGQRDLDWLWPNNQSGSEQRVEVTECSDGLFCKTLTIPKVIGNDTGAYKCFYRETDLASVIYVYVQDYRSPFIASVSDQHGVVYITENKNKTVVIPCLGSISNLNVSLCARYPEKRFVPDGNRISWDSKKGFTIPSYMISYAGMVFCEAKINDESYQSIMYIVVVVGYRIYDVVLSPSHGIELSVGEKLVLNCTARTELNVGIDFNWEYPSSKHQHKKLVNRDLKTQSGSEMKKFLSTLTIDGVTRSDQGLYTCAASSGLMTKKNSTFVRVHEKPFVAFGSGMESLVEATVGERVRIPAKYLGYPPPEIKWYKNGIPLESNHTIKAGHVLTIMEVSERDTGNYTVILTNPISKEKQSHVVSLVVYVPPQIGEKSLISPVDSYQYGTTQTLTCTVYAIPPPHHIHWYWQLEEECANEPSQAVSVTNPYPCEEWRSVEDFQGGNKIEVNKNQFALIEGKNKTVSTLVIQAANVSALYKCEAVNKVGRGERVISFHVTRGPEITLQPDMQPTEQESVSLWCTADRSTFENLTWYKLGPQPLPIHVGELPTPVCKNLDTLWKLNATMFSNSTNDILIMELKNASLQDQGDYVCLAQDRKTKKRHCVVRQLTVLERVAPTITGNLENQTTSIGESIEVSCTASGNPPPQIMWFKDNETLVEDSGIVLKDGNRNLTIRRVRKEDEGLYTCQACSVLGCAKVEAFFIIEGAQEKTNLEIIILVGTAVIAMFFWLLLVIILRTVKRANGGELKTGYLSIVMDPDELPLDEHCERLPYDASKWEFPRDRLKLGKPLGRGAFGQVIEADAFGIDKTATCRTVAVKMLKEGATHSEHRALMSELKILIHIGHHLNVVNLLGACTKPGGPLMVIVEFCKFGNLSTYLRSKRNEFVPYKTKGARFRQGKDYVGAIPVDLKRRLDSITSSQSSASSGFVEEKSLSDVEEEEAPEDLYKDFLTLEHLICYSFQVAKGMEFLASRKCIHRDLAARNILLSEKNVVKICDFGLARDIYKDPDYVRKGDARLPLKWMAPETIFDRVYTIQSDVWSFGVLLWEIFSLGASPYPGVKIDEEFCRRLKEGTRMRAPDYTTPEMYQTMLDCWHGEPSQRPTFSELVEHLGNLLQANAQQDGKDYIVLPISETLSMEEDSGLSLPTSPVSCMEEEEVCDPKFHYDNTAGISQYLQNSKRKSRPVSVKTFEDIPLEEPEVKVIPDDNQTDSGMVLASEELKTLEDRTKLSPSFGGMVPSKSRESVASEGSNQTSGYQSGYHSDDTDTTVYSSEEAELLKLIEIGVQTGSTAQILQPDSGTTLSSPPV
Measurement parameters: at 1 µM
Description: Inhibition of VEGFR2 (unknown origin) using Poly (Glu, Tyr) 4:1 as substrate at 1 uM preincubated with substrate followed by enzyme challenge for 1 hr by ELISA relative to control
Parameter measured: inhibition (%)
Report the value in % with no unit label.

Test item Cc1ccc(CC(=O)Nc2ccc3oc(-c4ccccc4Br)nc3c2)cc1 ; Vascular endothelial growth factor receptor 2 (Homo sapiens); reported inhibition was 89.1

# value of inhibition, Vascular endothelial growth factor receptor 2 (Homo sapiens), item COc1ccc(CC(=O)Nc2ccc3oc(-c4ccc(Cl)cc4)nc3c2)cc1OC = 92.6

The compound O=C(Nc1ccc2oc(-c3ccc(Cl)cc3)nc2c1)c1ccc(Cl)c(Br)c1 , when measured on Vascular endothelial growth factor receptor 2 (Homo sapiens), yielded inhibition of 90.2

Measured inhibition (Vascular endothelial growth factor receptor 2 (Homo sapiens)), entry COc1ccc(CC(=O)Nc2ccc3[nH]c(-c4ccc(C)cc4)nc3c2)cc1 : 75.2

Tested on Vascular endothelial growth factor receptor 2 (Homo sapiens), the item O=C(Nc1ccc2oc(-c3ccc(Cl)c(Br)c3)nc2c1)c1ccc(Cl)c(Br)c1 showed inhibition equal to 62.8

With Vascular endothelial growth factor receptor 2 (Homo sapiens) as the test system, COc1cc(CC(=O)Nc2ccc3oc(-c4ccc(Cl)cc4)nc3c2)cc(OC)c1OC showed inhibition of 91.5

# COc1cc(CC(=O)Nc2ccc3oc(-c4ccccc4)nc3c2)cc(OC)c1OC with Vascular endothelial growth factor receptor 2 (Homo sapiens): inhibition is 89.3

Let me check: O=C(Nc1ccc2oc(-c3ccccc3)nc2c1)c1ccc(Cl)c(Br)c1 , system Vascular endothelial growth factor receptor 2 (Homo sapiens), measured inhibition is 72.4

Entry O=C(Nc1ccc2oc(-c3ccccc3F)nc2c1)c1ccc(Cl)c(Br)c1 under Vascular endothelial growth factor receptor 2 (Homo sapiens) had inhibition of 84.2

Entry O=C(Nc1ccc2[nH]c(-c3ccc(Cl)cc3)nc2c1)c1ccc(Cl)c(Br)c1 under Vascular endothelial growth factor receptor 2 (Homo sapiens) had inhibition of 93.8

Let me check: COc1ccc(CC(=O)Nc2ccc3oc(-c4ccc(C)cc4)nc3c2)cc1 , system Vascular endothelial growth factor receptor 2 (Homo sapiens), measured inhibition is 43.2

Entry O=C(Nc1ccc2oc(-c3ccccc3F)nc2c1)c1ccc(Br)c(F)c1 under Vascular endothelial growth factor receptor 2 (Homo sapiens) had inhibition of 63.8

The reported inhibition value, Vascular endothelial growth factor receptor 2 (Homo sapiens), for COc1ccc(CC(=O)Nc2ccc3oc(-c4ccccc4Cl)nc3c2)cc1OC reads 86.4

Note to self: inhibition of COc1ccc(CC(=O)Nc2ccc3[nH]c(-c4ccc(Cl)cc4)nc3c2)cc1 with Vascular endothelial growth factor receptor 2 (Homo sapiens) was 103

Value sought: inhibition, system Vascular endothelial growth factor receptor 2 (Homo sapiens), item O=C(Nc1ccc2oc(-c3ccc(Cl)cc3)nc2c1)c1ccc(Br)c(F)c1 . Result: 70.8

Lab entry: Vascular endothelial growth factor receptor 2 (Homo sapiens) assay, compound COc1ccc(CC(=O)Nc2ccc3[nH]c(-c4ccc(OC)cc4)nc3c2)cc1 , inhibition = 68.3

Form field, inhibition with Vascular endothelial growth factor receptor 2 (Homo sapiens), item O=C(Nc1ccc2oc(-c3ccc(Cl)c(Br)c3)nc2c1)c1ccc(Br)c(F)c1 : 36.5

Lab entry: Vascular endothelial growth factor receptor 2 (Homo sapiens) assay, compound O=C(Nc1ccc2oc(-c3ccccc3)nc2c1)c1ccc(Cl)c(F)c1 , inhibition = 47.8

The observed inhibition for COc1ccc(CC(=O)Nc2ccc3oc(-c4ccccc4Br)nc3c2)cc1 when tested with Vascular endothelial growth factor receptor 2 (Homo sapiens) stands at 87.3

Tested on Vascular endothelial growth factor receptor 2 (Homo sapiens): O=C(Nc1ccc2oc(-c3ccccc3Cl)nc2c1)c1ccc(Cl)c(Br)c1 . Observed inhibition: 80.9

The observed inhibition for O=C(Nc1ccc2oc(-c3ccccc3)nc2c1)c1ccc(Br)c(F)c1 when tested with Vascular endothelial growth factor receptor 2 (Homo sapiens) stands at 42.2

----------
Test target: Vascular endothelial growth factor receptor 2 (Homo sapiens)
Test summary: Inhibition of VEGFR2 (unknown origin) using Poly (Glu, Tyr) 4:1 as substrate preincubated with substrate followed by enzyme challenge for 1 hr by ELISA
# 1 = IC50 below 400 nM (exclusive); -1 = IC50 at/above 400 nM

Input line: Hello, I'm reviewing records and need to know if IC50 of COc1ccc(CC(=O)Nc2ccc3oc(-c4ccccc4Cl)nc3c2)cc1 is below 400 nM. Could you check?
Output line: -1

Input line: # check: IC50 < 400 nM for COc1ccc(CC(=O)Nc2ccc3oc(-c4ccc(Cl)cc4)nc3c2)cc1OC
Output line: 1

Input line: Given the entry COc1cc(CC(=O)Nc2ccc3oc(-c4ccccc4)nc3c2)cc(OC)c1OC , would its reported IC50 be below 400 nM?
Output line: 1

Input line: Consider the molecule Cc1ccc(CC(=O)Nc2ccc3oc(-c4ccccc4F)nc3c2)cc1 . Is its IC50 strictly less than 400 nM?
Output line: 1

Input line: Could you please tell me whether IC50 recorded for O=C(Nc1ccc2[nH]c(-c3ccc(Cl)cc3)nc2c1)c1ccc(Cl)c(Br)c1 is less than 400 nM?
Output line: -1

Input line: Here's an entry: COc1ccc(CC(=O)Nc2ccc3oc(-c4ccccc4)nc3c2)cc1OC . Is its IC50 below 400 nM?
Output line: -1

Input line: Hi there! Is IC50 for Cc1ccc(CC(=O)Nc2ccc3[nH]c(-c4ccc(Cl)cc4)nc3c2)cc1 below 400 nM, do you know?
Output line: 1

----------
Test target: Epidermal growth factor receptor (Homo sapiens)
Test summary: Inhibition of EGFR (unknown origin) using Poly (Glu, Tyr) 4:1 as substrate at 1 uM preincubated with substrate followed by enzyme challenge for 1 hr by ELISA relative to control
Parameter measured: inhibition (%)
Use % as the unit, but write only the number.

inhibition in this record for COc1ccc(CC(=O)Nc2ccc3oc(-c4ccccc4F)nc3c2)cc1OC : 32.3

Reported inhibition for O=C(Nc1ccc2oc(-c3ccc(Cl)cc3)nc2c1)c1ccc(Cl)c(Br)c1 was 44.1

For record COc1ccc(CC(=O)Nc2ccc3oc(-c4ccccc4Cl)nc3c2)cc1OC the listed inhibition is 36.2

Consider O=C(Nc1ccc2oc(-c3ccc(Cl)c(Br)c3)nc2c1)c1ccc(Cl)c(F)c1 . Its measured inhibition is 14.6

Lookup result for O=C(Nc1ccc2oc(-c3ccccc3F)nc2c1)c1ccc(Br)c(F)c1 ; measured inhibition: 32.6

----------
Test target: UniProt:P35968
Measurement parameters: at 1 µM
For each record, write down the corresponding inhibition.

# inhibition (compound: O=C(Nc1ccc2oc(-c3ccccc3Br)nc2c1)c1ccc(Cl)c(F)c1 ) is 59.3%

The recorded inhibition for entry Cc1ccc(CC(=O)Nc2ccc3oc(-c4ccccc4Cl)nc3c2)cc1 equals 93.5%

Lab note: COc1cc(CC(=O)Nc2ccc3[nH]c(-c4ccc(Cl)cc4)nc3c2)cc(OC)c1OC gave inhibition of 90.2%

Sample COc1ccc(CC(=O)Nc2ccc3oc(-c4ccccc4)nc3c2)cc1OC ; inhibition observed: 83.5%

COc1ccc(CC(=O)Nc2ccc3oc(-c4ccccc4F)nc3c2)cc1OC has a reported inhibition of 84.2%

The compound listed as O=C(Nc1ccc2oc(-c3ccc(Cl)c(Br)c3)nc2c1)c1ccc(Cl)c(F)c1 shows inhibition equal to 40.2%

The compound identified as COc1cc(CC(=O)Nc2ccc3oc(-c4ccccc4F)nc3c2)cc(OC)c1OC registered its inhibition at 80.3%

Measured inhibition of O=C(Nc1ccc2oc(-c3ccc(Cl)cc3)nc2c1)c1ccc(Cl)c(F)c1 : 72.1%

Entry Cc1ccc(CC(=O)Nc2ccc3oc(-c4ccc(Cl)c(Br)c4)nc3c2)cc1 ; inhibition = 81.7%

// field: inhibition; key: O=C(Nc1ccc2oc(-c3ccccc3F)nc2c1)c1ccc(Cl)c(F)c1 ; value = 70.9%

----------
Test summary: Cytotoxicity against human LO2 cells assessed as reduction in cell viability at 10 uM relative to control
Assay type: cell-based, L02
Measurement parameters: read-out: INH
Parameter measured: cytotoxicity at 10 µM
Answers without a unit are incomplete; give the number and then its unit.

Item: COc1ccc(CC(=O)Nc2ccc3[nH]c(-c4ccc(Cl)cc4)nc3c2)cc1 | cytotoxicity at 10 µM: 56.4%

----------
Exercise: for every item that follows, state its recorded pIC50.
Tested on: A549
Test summary: Antiproliferative activity against human A549 cells expressing EGFR assessed as reduction in cell growth incubated for 48 hrs by MTT assay
Format: functional, cell-based
Measurement parameters: A549, 48 h
Value format note: pIC50 is -log10 of concentration (mol/L); just state the number.

// sample COc1ccc(CC(=O)Nc2ccc3oc(-c4ccc(Cl)cc4)nc3c2)cc1 , its pIC50 was 4.13

Measured pIC50, O=C(Nc1ccc2oc(-c3ccccc3Br)nc2c1)c1ccc(Cl)c(F)c1 : 4.13

// recorded pIC50 for COc1ccc(CC(=O)Nc2ccc3oc(-c4ccccc4Br)nc3c2)cc1 : 4.26

Note to self: pIC50 recorded for O=C(Nc1ccc2oc(-c3ccccc3F)nc2c1)c1ccc(Cl)c(Br)c1 was 4.06

Kindly note the recorded pIC50 for COc1ccc(CC(=O)Nc2ccc3[nH]c(-c4ccc(OC)cc4)nc3c2)cc1 , which is 4.12

Per the records, this molecule ( COc1cc(CC(=O)Nc2ccc3oc(-c4ccccc4)nc3c2)cc(OC)c1OC ) has pIC50 equal to 4.03

Consider Cc1ccc(CC(=O)Nc2ccc3oc(-c4ccccc4Cl)nc3c2)cc1 . Its measured pIC50 is 4.19

Entry under test: O=C(Nc1ccc2oc(-c3ccccc3Br)nc2c1)c1ccc(Br)c(F)c1 . Its pIC50 was 4.18

Notebook: Cc1ccc(CC(=O)Nc2ccc3[nH]c(-c4ccc(Cl)cc4)nc3c2)cc1 , pIC50 read as 4.22

For record Cc1ccc(CC(=O)Nc2ccc3oc(-c4ccccc4Br)nc3c2)cc1 the listed pIC50 is 4.40

The value of pIC50 measured for the molecule CNC(=O)c1cc(Oc2ccc(NC(=O)Nc3ccc(Cl)c(C(F)(F)F)c3)cc2)ccn1 [SORAFENIB] turned out to be 5.12

For reference, reported pIC50 for COc1ccc(CC(=O)Nc2ccc3[nH]c(-c4ccc(Cl)cc4)nc3c2)cc1 stands at 4.13

Quick note, pIC50 for O=C(Nc1ccc2oc(-c3ccccc3F)nc2c1)c1ccc(Br)c(F)c1 landed at 4.55

Per the records, this molecule ( O=C(Nc1ccc2oc(-c3ccc(Cl)c(Br)c3)nc2c1)c1ccc(Cl)c(F)c1 ) has pIC50 equal to 4.33

Entry COc1ccc(CC(=O)Nc2ccc3oc(-c4ccccc4)nc3c2)cc1OC , pIC50 reported as 4.05

Lab book: pIC50 of O=C(Nc1ccc2oc(-c3ccccc3)nc2c1)c1ccc(Cl)c(Br)c1 noted as 4.10

Entry O=C(Nc1ccc2oc(-c3ccc(Cl)c(Br)c3)nc2c1)c1ccc(Cl)c(Br)c1 — recorded pIC50 = 4.03

Entry O=C(Nc1ccc2[nH]c(-c3ccc(Cl)cc3)nc2c1)c1ccc(Cl)c(Br)c1 , pIC50 reported as 4.52

The reported value for O=C(Nc1ccc2oc(-c3ccccc3Cl)nc2c1)c1ccc(Cl)c(F)c1 in terms of pIC50 is 4.20

Record Cc1ccc(CC(=O)Nc2ccc3oc(-c4ccccc4F)nc3c2)cc1 , field pIC50: 4.08
